Source: PubChem BioAssay AID1626

Provide the reported inhibition of each item.
measurementDescription: M. tuberculosis H37Rv growth inhibitors, H37Rv strain (AID 1626);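 further: bacteria incubated seven days before Alamar blue readout; 0% = bacteria only wells and 100% = bacteria with antibiotic wells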
conditionNotes: hits give high values, concentration not given here
The whole screen tested about 220,000 compounds, of which about 2,000 (0.91%) were called active. Not shown: some 2% with an inconclusive outcome. These entries were drawn from the full list. Measured potencies and affinities stand elsewhere.
Give bare numbers, in %.

Known inhibition results, listed for orientation:
>  <compound>
COc1ccc(-c2csc(-c3cccs3)n2)c(OC)c1

>  <value>
6.31

$$$$
>  <compound>
CN(CCc1cnn(C)c1)Cc1cn[nH]c1-c1ccc(-c2ccccc2)cc1

>  <value>
3.7

$$$$
>  <compound>
CCN(CC)S(=O)(=O)c1cccc(NC(=O)COC(=O)CNC(=O)c2cccc(F)c2)c1

>  <value>
-4.29

$$$$
>  <compound>
O=c1cc(-c2ccccc2)c2ccccc2[nH]1

>  <value>
-8.75

$$$$
>  <compound>
CCN(CC)S(=O)(=O)c1ccc(/C=C/C(=O)Nc2c(C)n(C)n(-c3ccccc3)c2=O)cc1

>  <value>
-0.04

$$$$

Kindly give each listed record's inhibition.
1. COc1ccc(-n2c(=O)c3ccccc3n(CC(=O)c3ccccc3)c2=O)cc1OC
2. C=CCN1C(=O)C(CC(=O)Nc2ccccc2F)S/C1=N\c1nccs1 (stereo unspecified)
3. COc1ccc(S(=O)(=O)Nc2ccc(N3CCOCC3)cc2)cc1[N+](=O)[O-]
4. COC(=O)c1cc(C)nc(Sc2ccccc2NC(C)=O)n1
5. CSc1ccc(/C=C/C(=O)c2ccc(NC(=O)C(C)C)cc2)cc1
6. CCOc1ccc(C(=O)/C=C/c2ccc(SC)cc2)cc1
7. Cc1cc(-c2c(C)[nH]n(-c3ccc(Cl)cc3)c2=O)n[nH]1
8. COc1ccc(-c2noc(-c3cccs3)n2)cc1OC

Response:
-3.99
6.25
-1.81
-6.62
75.2
-1.12
65.3
10.1

Please state inhibition for every compound in the list that follows.
1. CCOc1ccc(NC(=O)c2ccc(CNc3c(N4CCCC4)c(=O)c3=O)cc2)cc1
2. COc1ccccc1/C=C/C(=O)c1ccc(NC(C)=O)cc1
3. O=C(Cn1nc(-c2nn(CC(=O)c3ccccc3)c3[n+]2CCCCC3)[n+]2c1CCCCC2)c1ccccc1

Response:
67.9
94.1
6.97

====

measurementDescription: M. tuberculosis H37Rv growth inhibitors, H37Rv strain (AID 1626);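 further: bacteria incubated seven days before Alamar blue readout; 0% = bacteria only wells and 100% = bacteria with antibiotic wells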
conditionNotes: hits give high values, concentration not given here
Hit rate of the full screen: of about 220,000 compounds, about 2,000 (0.91%) were called active. Not shown: some 2% with an inconclusive outcome. Not all results are given here. Potency and affinity values are given separately.
Give inhibition for every item shown.

>  <molecule>
CCOc1ccccc1NC(=O)Cn1c(=O)oc2ccccc21

>  <inhibition>
6.54% (inactive)

$$$$
>  <molecule>
CCc1ccc2c(c1)C(O)(CC(=O)c1cccs1)C(=O)N2 (stereo not drawn)

>  <inhibition>
3.05% (inactive)

$$$$

Okay, now this molecule:
Prompt: Consider the molecule Cc1nnc(NC(=O)CSc2nnc(Cc3cccn3C)n2-c2cccc(C(F)(F)F)c2)s1 and give its recorded inhibition.
Response: 4.46% (inactive)

====

What inhibition was measured for each of the following?
measurementDescription: M. tuberculosis H37Rv growth inhibitors, H37Rv strain (AID 1626);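 further: bacteria incubated seven days before Alamar blue readout; 0% = bacteria only wells and 100% = bacteria with antibiotic wells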
conditionNotes: hits give high values, concentration not given here
The campaign covered roughly 220,000 compounds. About 2,000 (0.91%) were called active. Inconclusive results (about 2%) are left out. A selection follows. Potency and affinity values are given separately.
Numbers only, in %.

>  <compound>
Cc1ccc(CSc2nnc(-c3ccc(NS(=O)(=O)c4ccccc4)cc3)o2)cc1

>  <unitDescriptor>
%

>  <inhibition>
11.7

$$$$
>  <compound>
Clc1ccc(C2=NCCN2)cc1

>  <unitDescriptor>
%

>  <inhibition>
4.97

$$$$
>  <compound>
CC(=O)CSc1nc(N)c(C#N)c(-c2cccs2)c1C#N

>  <unitDescriptor>
%

>  <inhibition>
-7.14

$$$$

Prompt: Annotate the compound CC(Oc1ccc(Cl)cc1Cl)c1ccn[nH]1 (centres undefined) with its measured inhibition.
Response: 2.27
